// values below are reported inhibition at 1 µM
Test system: ICAM-1
Experiment: CAM ELISA: ICAM-1 expression on TNF-stimulated HUVECs
Type: cell-based
Details: Homo sapiens, Endothelial cell, 1 μM compound; primary human umbilical vein endothelial cells; compound 24 hours, then TNF 5 ng/mL 6 hours
Readout kind: inhibition at 1 µM (%)

> print(dat)
                                   compound  test.system        readout.kind  result.units  test.value
1  NNC(=O)c1cc2c(Oc3ccc(C(F)(F)F)cc3)cncc2s1       ICAM-1  inhibition at 1 µM             %          65
2   CNC(=O)c1cc2c(Oc3ccc(Cl)cc3)cnc(Cl)c2s1       ICAM-1  inhibition at 1 µM             %          76
3  CNC(=O)c1cc2c(Oc3ccc(-n4cccn4)cc3)cncc2s1       ICAM-1  inhibition at 1 µM             %          64
4  CNC(=O)C(O)C(O)c1cc2c(Oc3ccc(Br)cc3)cncc2s1 (stereo not drawn)       ICAM-1  inhibition at 1 µM             %          16
5  OCC(O)c1cc2c(Oc3ccc(Cl)cc3)cncc2s1 (stereo not drawn)       ICAM-1  inhibition at 1 µM             %          28
6  CNC(=O)c1cc2c(Oc3ccc(N4CCOCC4)cc3)cncc2s1 [Example 190C]       ICAM-1  inhibition at 1 µM             %          65
7  CNC(=O)c1cc2c(Oc3ccc(-c4noc(C(F)(F)F)n4)cc3)cncc2s1       ICAM-1  inhibition at 1 µM             %          51
8  CNC(=O)c1cc2c(Oc3ccc(C4(CO)CC4)cc3)cncc2s1       ICAM-1  inhibition at 1 µM             %          78
9         Cc1ccc(Oc2cncc3sc(C(N)=O)cc23)cc1       ICAM-1  inhibition at 1 µM             %          71
